- method.summary: physchem
- Assay type: physicochemical
- condition.context: plasma-free buffer
measurement.label: half-life (h)
The answer is to be given in h; state only the numeric part.

The value of half-life measured for the compound CC[C@H](C(=O)OCc1ccc(C)cc1)[C@H](CO)Cc1cncn1C [Example 5, Pilocarpic Acid 4-Methylbenzyl Ester] turned out to be 1.28

---

- method.summary: Degradation of O-acyl pilocarpic acid esters and formation of pilocarpine in 75% human plasma
- Type: in vitro ADME
- condition.context: 75% plasma; 75% human plasma (pH 7.4) at 37° C.; read-out: half-lives of degradation in 75% human plasma
measurement.label: half-life (min)
The answer is to be given in min; state only the numeric part.

compound: CC[C@H](C(=O)OCc1ccc(C)cc1)[C@H](COC(=O)c1ccccc1)Cc1cncn1C [Example 11]
half-life [min]: 16

Please find the next compound below.
The value of half-life measured for the compound CC[C@H](C(=O)OCc1ccc(C)cc1)[C@H](COC(C)=O)Cc1cncn1C [Example 12] turned out to be 24

---

- method.summary: Apparent partition coefficient 1-octanol/phosphate buffer pH 7.4
- Format: physicochemical
- condition.context: octanol/phosphate buffer, pH 7.4, octanol / 0.05 M phosphate buffer pH 7.40 (Table 2); read-out: log P
measurement.label: logD
Answer with the value's number alone.

The value of logD measured for the molecule CC[C@H](C(=O)OCc1ccc(C)cc1)[C@H](COC(C)=O)Cc1cncn1C turned out to be 3.16

---

- method.summary: Apparent partition coefficient 1-octanol/phosphate buffer pH 7.4
- Format: physicochemical
- condition.context: octanol/phosphate buffer, pH 7.4, Partition coefficients (P)
# logD per entry
Answer with the value's number alone.

A selection of reference data follows.
compound: CCCCOC(=O)[C@@H](CC)[C@H](CO)Cc1cncn1C [Example 2, Pilocarpic Acid Butyl Ester]
quantitative.result: 1.58

compound: CC[C@H](C(=O)OCCc1ccccc1)[C@H](CO)Cc1cncn1C [Example 9, Pilocarpic Acid 2-Phenylethyl Ester]
quantitative.result: 2.16

compound: CC[C@H](C(=O)OCc1ccccc1)[C@H](CO)Cc1cncn1C [Example 3, Pilocarpic Acid Benzyl Ester]
quantitative.result: 1.82

compound: CC[C@H](C(=O)OCc1ccc(C)cc1)[C@H](CO)Cc1cncn1C [Example 5, Pilocarpic Acid 4-Methylbenzyl Ester]
quantitative.result: 2.31

Please find the next compound below.
The value of logD measured for the compound CC[C@H](C(=O)OCc1ccc(Cl)cc1)[C@H](CO)Cc1cncn1C [Example 4, Pilocarpic Acid 4-Chlorobenzyl Ester] turned out to be 2.54
